Cited source for all entries: BindingDB's records for doi:10.1016/j.bmcl.2006.12.025

# reported log10 IC50; entries follow
tested_on: Prostacyclin receptor (Homo sapiens, UniProt P43119)
Sequence (P43119 whole entry): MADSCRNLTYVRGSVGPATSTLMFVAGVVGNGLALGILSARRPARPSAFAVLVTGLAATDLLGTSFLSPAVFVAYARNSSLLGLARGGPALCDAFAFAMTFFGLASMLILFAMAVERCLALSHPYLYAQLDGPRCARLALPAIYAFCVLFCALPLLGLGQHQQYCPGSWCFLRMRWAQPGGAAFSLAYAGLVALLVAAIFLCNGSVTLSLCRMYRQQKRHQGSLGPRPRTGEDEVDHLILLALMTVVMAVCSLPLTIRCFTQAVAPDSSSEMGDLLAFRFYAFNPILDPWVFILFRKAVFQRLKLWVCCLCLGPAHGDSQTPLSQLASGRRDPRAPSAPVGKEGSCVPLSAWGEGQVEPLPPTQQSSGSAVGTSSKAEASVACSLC
experiment_description: IP Receptor Filter Binding Assay and cAMP Assay
details: pH 7.4; 22 °C
observable: log10 IC50 (log10 of the value in nM)

compound=CC(=O)Nc1cccc(-c2ccc(Cc3ocnc3C(=O)N[C@H]3C[C@@H]3c3ccccc3)cc2)c1 tested_on="Prostacyclin receptor (Homo sapiens, UniProt P43119)" assay_result=2.55
compound=CC(=O)Nc1cccc(-c2ccc(Cc3ocnc3C(=O)NC[C@@H](C)c3ccccc3)cc2)c1 tested_on="Prostacyclin receptor (Homo sapiens, UniProt P43119)" assay_result=2.47
compound=CC(=O)Nc1cccc(-c2ccc(Cc3ocnc3C(=O)NCCc3cccnc3)cc2)c1 tested_on="Prostacyclin receptor (Homo sapiens, UniProt P43119)" assay_result=2.87
compound=CC(=O)Nc1cccc(-c2ccc(Cc3ocnc3C(=O)NCCN(C)C)cc2)c1 tested_on="Prostacyclin receptor (Homo sapiens, UniProt P43119)" assay_result=3.52
compound=CC(=O)Nc1cccc(-c2ccc(Cc3ocnc3C(=O)Nc3ccccc3)cc2)c1 tested_on="Prostacyclin receptor (Homo sapiens, UniProt P43119)" assay_result=2.92
compound="CC(=O)Nc1cccc(-c2ccc(Cc3ocnc3C(=O)NC(C)c3ccccc3)cc2)c1 (racemic)" tested_on="Prostacyclin receptor (Homo sapiens, UniProt P43119)" assay_result=2.44
compound=CNC(=O)c1ncoc1Cc1ccc(-c2cccc(NC(C)=O)c2)cc1 tested_on="Prostacyclin receptor (Homo sapiens, UniProt P43119)" assay_result=3.52
compound=CC(=O)Nc1cccc(-c2ccc(Cc3ocnc3C(=O)N(C)CCc3ccccc3)cc2)c1 tested_on="Prostacyclin receptor (Homo sapiens, UniProt P43119)" assay_result=3.33
compound=CC(=O)Nc1cccc(-c2ccc(Cc3ocnc3C(=O)N[C@@H](Cc3ccccc3)C(=O)O)cc2)c1 tested_on="Prostacyclin receptor (Homo sapiens, UniProt P43119)" assay_result=1.20
compound=CC(=O)Nc1cccc(-c2ccc(Cc3ocnc3C(=O)NCCc3ccccc3)cc2)c1 tested_on="Prostacyclin receptor (Homo sapiens, UniProt P43119)" assay_result=2.14
compound=CC(=O)Nc1cccc(-c2ccc(Cc3ocnc3C(=O)NC[C@H](C)c3ccccc3)cc2)c1 tested_on="Prostacyclin receptor (Homo sapiens, UniProt P43119)" assay_result=1.71
compound=CC(=O)Nc1cccc(-c2ccc(Cc3ocnc3C(=O)NCCc3ccccn3)cc2)c1 tested_on="Prostacyclin receptor (Homo sapiens, UniProt P43119)" assay_result=3.00
compound=CC(=O)Nc1cccc(-c2ccc(Cc3ocnc3C(=O)NC(C)C)cc2)c1 tested_on="Prostacyclin receptor (Homo sapiens, UniProt P43119)" assay_result=3.55
compound=CC(=O)Nc1cccc(-c2ccc(Cc3ocnc3C(=O)NCCc3ccncc3)cc2)c1 tested_on="Prostacyclin receptor (Homo sapiens, UniProt P43119)" assay_result=2.68
compound=CC(=O)Nc1cccc(-c2ccc(Cc3ocnc3C(=O)N[C@H](Cc3ccccc3)C(=O)O)cc2)c1 tested_on="Prostacyclin receptor (Homo sapiens, UniProt P43119)" assay_result=2.92
compound=CC(=O)Nc1cccc(-c2ccc(Cc3ocnc3C(=O)NCc3ccccc3)cc2)c1 tested_on="Prostacyclin receptor (Homo sapiens, UniProt P43119)" assay_result=1.82
